Conditions: in ethanol, 282.16 K
Reported endpoint: solubility (mole fraction)
Answers are plain numbers.

Input: What solubility (mole fraction) value was documented for this compound, CCCCCCCCCCCC(=O)O ?
Output: 0.0739

* * *

Conditions: in ethanol, 285.15 K
Reported endpoint: solubility (mole fraction)

Input: What solubility (mole fraction) value was documented for this compound, CCCCCCCCCCCC(=O)O ?
Output: 0.0924

* * *

Settings: in methanol, 297.13 K
Reported endpoint: solubility (mole fraction)

Input: What solubility (mole fraction) value was documented for this molecule, CCCCCCCCCCCC(=O)O ?
Output: 0.208

* * *

Conditions: in n-propanol, 279.16 K
Reported endpoint: solubility (mole fraction)
Give bare numbers.

Input: What solubility (mole fraction) value was documented for this compound, CCCCCCCCCCCC(=O)O ?
Output: 0.0685

* * *

Conditions: in ethanol, 276.17 K
Reported endpoint: solubility (mole fraction)

Input: What solubility (mole fraction) value was documented for this compound, CCCCCCCCCCCC(=O)O ?
Output: 0.0422

* * *

Settings: in n-propanol, 291.14 K
Reported endpoint: solubility (mole fraction)
Give bare numbers.

Input: What solubility (mole fraction) value was documented for this compound, CCCCCCCCCCCC(=O)O ?
Output: 0.169

* * *

Conditions: in n-pentanol, 291.14 K
Reported endpoint: solubility (mole fraction)
Numbers only.

Input: What solubility (mole fraction) value was documented for this compound, CCCCCCCCCCCC(=O)O ?
Output: 0.204

* * *

Conditions: in n-pentanol, 300.13 K
Reported endpoint: solubility (mole fraction)

Input: What solubility (mole fraction) value was documented for this molecule, CCCCCCCCCCCC(=O)O ?
Output: 0.368

* * *

Details: in n-butanol, 288.15 K
Reported endpoint: solubility (mole fraction)
Numbers only.

Input: What solubility (mole fraction) value was documented for this compound, CCCCCCCCCCCC(=O)O ?
Output: 0.151

* * *

Details: in isopentanol, 291.14 K
Reported endpoint: solubility (mole fraction)
Numbers only.

Input: What solubility (mole fraction) value was documented for this compound, CCCCCCCCCCCC(=O)O ?
Output: 0.217

* * *

Conditions: in isobutanol, 300.13 K
Reported endpoint: solubility (mole fraction)
Numbers only.

Input: What solubility (mole fraction) value was documented for this compound, CCCCCCCCCCCC(=O)O ?
Output: 0.351

* * *

Settings: in methanol, 282.16 K
Reported endpoint: solubility (mole fraction)
Numbers only.

Input: What solubility (mole fraction) value was documented for this molecule, CCCCCCCCCCCC(=O)O ?
Output: 0.0555

* * *

Details: in n-hexanol, 306.12 K
Reported endpoint: solubility (mole fraction)
Give bare numbers.

Input: What solubility (mole fraction) value was documented for this compound, CCCCCCCCCCCC(=O)O ?
Output: 0.549

* * *

Conditions: in methanol, 279.16 K
Reported endpoint: solubility (mole fraction)
Give bare numbers.

Input: What solubility (mole fraction) value was documented for this compound, CCCCCCCCCCCC(=O)O ?
Output: 0.0419

* * *

Details: in methanol, 294.14 K
Reported endpoint: solubility (mole fraction)
Give bare numbers.

Input: What solubility (mole fraction) value was documented for this compound, CCCCCCCCCCCC(=O)O ?
Output: 0.161

* * *

Conditions: in isopentanol, 294.14 K
Reported endpoint: solubility (mole fraction)
Answers are plain numbers.

Input: What solubility (mole fraction) value was documented for this compound, CCCCCCCCCCCC(=O)O ?
Output: 0.263

* * *

Details: in isobutanol, 303.12 K
Reported endpoint: solubility (mole fraction)
Answers are plain numbers.

Input: What solubility (mole fraction) value was documented for this compound, CCCCCCCCCCCC(=O)O ?
Output: 0.422

* * *

Settings: in n-hexanol, 288.15 K
Reported endpoint: solubility (mole fraction)
Give bare numbers.

Input: What solubility (mole fraction) value was documented for this compound, CCCCCCCCCCCC(=O)O ?
Output: 0.183

* * *

Conditions: in n-pentanol, 303.12 K
Reported endpoint: solubility (mole fraction)
Give bare numbers.

Input: What solubility (mole fraction) value was documented for this compound, CCCCCCCCCCCC(=O)O ?
Output: 0.435

* * *

Settings: in isobutanol, 294.14 K
Reported endpoint: solubility (mole fraction)
Give bare numbers.

Input: What solubility (mole fraction) value was documented for this molecule, CCCCCCCCCCCC(=O)O ?
Output: 0.238

* * *

Conditions: in n-butanol, 297.13 K
Reported endpoint: solubility (mole fraction)
Give bare numbers.

Input: What solubility (mole fraction) value was documented for this molecule, CCCCCCCCCCCC(=O)O ?
Output: 0.283

* * *

Conditions: in n-butanol, 300.13 K
Reported endpoint: solubility (mole fraction)
Numbers only.

Input: What solubility (mole fraction) value was documented for this compound, CCCCCCCCCCCC(=O)O ?
Output: 0.338

* * *

Conditions: in n-hexanol, 294.14 K
Reported endpoint: solubility (mole fraction)
Numbers only.

Input: What solubility (mole fraction) value was documented for this molecule, CCCCCCCCCCCC(=O)O ?
Output: 0.266

* * *

Conditions: in n-pentanol, 282.16 K
Reported endpoint: solubility (mole fraction)

Input: What solubility (mole fraction) value was documented for this compound, CCCCCCCCCCCC(=O)O ?
Output: 0.113

* * *

Conditions: in isopentanol, 282.16 K
Reported endpoint: solubility (mole fraction)
Answers are plain numbers.

Input: What solubility (mole fraction) value was documented for this molecule, CCCCCCCCCCCC(=O)O ?
Output: 0.122

* * *

Conditions: in n-propanol, 303.12 K
Reported endpoint: solubility (mole fraction)
Give bare numbers.

Input: What solubility (mole fraction) value was documented for this compound, CCCCCCCCCCCC(=O)O ?
Output: 0.399

* * *

Conditions: in n-hexanol, 303.12 K
Reported endpoint: solubility (mole fraction)
Answers are plain numbers.

Input: What solubility (mole fraction) value was documented for this compound, CCCCCCCCCCCC(=O)O ?
Output: 0.464

* * *

Conditions: in n-hexanol, 291.14 K
Reported endpoint: solubility (mole fraction)
Answers are plain numbers.

Input: What solubility (mole fraction) value was documented for this compound, CCCCCCCCCCCC(=O)O ?
Output: 0.22

* * *

Conditions: in isopentanol, 285.15 K
Reported endpoint: solubility (mole fraction)
Answers are plain numbers.

Input: What solubility (mole fraction) value was documented for this compound, CCCCCCCCCCCC(=O)O ?
Output: 0.15

* * *

Conditions: in isopentanol, 303.12 K
Reported endpoint: solubility (mole fraction)
One number for each entry.

Input: What solubility (mole fraction) value was documented for this compound, CCCCCCCCCCCC(=O)O ?
Output: 0.446

* * *

Details: in n-pentanol, 288.15 K
Reported endpoint: solubility (mole fraction)

Input: What solubility (mole fraction) value was documented for this compound, CCCCCCCCCCCC(=O)O ?
Output: 0.167

* * *

Details: in ethanol, 294.14 K
Reported endpoint: solubility (mole fraction)
One number for each entry.

Input: What solubility (mole fraction) value was documented for this compound, CCCCCCCCCCCC(=O)O ?
Output: 0.194

* * *

Details: in n-butanol, 285.15 K
Reported endpoint: solubility (mole fraction)

Input: What solubility (mole fraction) value was documented for this compound, CCCCCCCCCCCC(=O)O ?
Output: 0.123

* * *

Settings: in methanol, 291.14 K
Reported endpoint: solubility (mole fraction)
Give bare numbers.

Input: What solubility (mole fraction) value was documented for this compound, CCCCCCCCCCCC(=O)O ?
Output: 0.123

* * *

Conditions: in ethanol, 297.13 K
Reported endpoint: solubility (mole fraction)
Numbers only.

Input: What solubility (mole fraction) value was documented for this compound, CCCCCCCCCCCC(=O)O ?
Output: 0.244

* * *

Settings: in n-propanol, 285.15 K
Reported endpoint: solubility (mole fraction)
Give bare numbers.

Input: What solubility (mole fraction) value was documented for this molecule, CCCCCCCCCCCC(=O)O ?
Output: 0.108

* * *

Conditions: in n-hexanol, 276.17 K
Reported endpoint: solubility (mole fraction)
Numbers only.

Input: What solubility (mole fraction) value was documented for this compound, CCCCCCCCCCCC(=O)O ?
Output: 0.0827

* * *

Details: in ethanol, 291.14 K
Reported endpoint: solubility (mole fraction)
Answers are plain numbers.

Input: What solubility (mole fraction) value was documented for this compound, CCCCCCCCCCCC(=O)O ?
Output: 0.151

* * *

Conditions: in isobutanol, 276.17 K
Reported endpoint: solubility (mole fraction)
Numbers only.

Input: What solubility (mole fraction) value was documented for this compound, CCCCCCCCCCCC(=O)O ?
Output: 0.0659

* * *

Conditions: in methanol, 288.15 K
Reported endpoint: solubility (mole fraction)

Input: What solubility (mole fraction) value was documented for this compound, CCCCCCCCCCCC(=O)O ?
Output: 0.0942

* * *

Conditions: in n-pentanol, 297.13 K
Reported endpoint: solubility (mole fraction)

Input: What solubility (mole fraction) value was documented for this compound, CCCCCCCCCCCC(=O)O ?
Output: 0.301

* * *

Details: in isopentanol, 276.17 K
Reported endpoint: solubility (mole fraction)
One number for each entry.

Input: What solubility (mole fraction) value was documented for this molecule, CCCCCCCCCCCC(=O)O ?
Output: 0.0814

* * *

Settings: in n-pentanol, 285.15 K
Reported endpoint: solubility (mole fraction)
Give bare numbers.

Input: What solubility (mole fraction) value was documented for this compound, CCCCCCCCCCCC(=O)O ?
Output: 0.137

* * *

Conditions: in n-hexanol, 279.16 K
Reported endpoint: solubility (mole fraction)
Numbers only.

Input: What solubility (mole fraction) value was documented for this molecule, CCCCCCCCCCCC(=O)O ?
Output: 0.0991

Hey, just so you know, these numbers are from BigSolDB 2.1.
